# target of assay: Neuropeptide Y receptor type 1 (Homo sapiens, UniProt P25929)
# Sequence (P25929 whole entry): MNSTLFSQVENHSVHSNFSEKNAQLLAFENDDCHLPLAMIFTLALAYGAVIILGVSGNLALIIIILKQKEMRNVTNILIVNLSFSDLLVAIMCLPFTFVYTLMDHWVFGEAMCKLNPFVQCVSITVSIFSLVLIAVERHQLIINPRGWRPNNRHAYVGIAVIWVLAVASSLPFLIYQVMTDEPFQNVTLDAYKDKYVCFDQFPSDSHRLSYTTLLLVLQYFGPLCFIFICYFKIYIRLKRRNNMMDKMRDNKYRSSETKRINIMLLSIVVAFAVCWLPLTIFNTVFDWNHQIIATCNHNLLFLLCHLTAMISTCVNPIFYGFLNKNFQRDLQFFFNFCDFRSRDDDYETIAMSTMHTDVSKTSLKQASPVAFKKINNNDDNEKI
# experimental details: Compound was evaluated for its inhibitory activity against human neuropeptide Y1 receptor expressing SK-N-MC cells
# Type: cell-based
reported metric: IC50 (µM)

substance=Ac-RHYINLITRQRY-OH reported_metric=IC50 observed_value=35
